B1: Advillin, residues 785 to 819; numbered along this chain, O75366 (parent)
chain: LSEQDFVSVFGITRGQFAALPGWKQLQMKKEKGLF

Variants of: B1
Assay: abundance fitness (aPCA) (normalised: wild type 0, dead -1); higher = more abundant; growth selection in yeast, the domain comes from the species named
Details: Homo sapiens
readout kind: abundance fitness

Here are 8 variants together with their reported answers.
variant key | abundance fitness
Q27C | -0.432
F17T | -0.486
G15K | 0.15
K32Y | -0.298
Q25V | -0.604
R14C | -0.095
R14A | -0.121
L1A | -0.322

Query (variant): `V9T` ; field requested: abundance fitness
-0.141

Look up abundance fitness: `P21C`
-0.436

State the recorded abundance fitness for this entry: `F35R`
0.126

Quick one: abundance fitness for `F10T` ?
-0.367

Which abundance fitness is listed for `L1N` ?
-0.078

Please report the recorded abundance fitness for `V7T` .
-0.115

Given `W23V` , state its recorded abundance fitness.
-0.11

So what does the record say about abundance fitness for `Q16D` ?
-0.347

Quick check: abundance fitness of `Q27W` ?
-0.37

// returns reported abundance fitness for input `L26M`
-0.114

Find the recorded abundance fitness belonging to `F6P` and report it.
-0.461

# get_value(readout='abundance fitness', item= `E31W` )
-0.709
